tested on: OVCAR-5 complex spheroids with HUVEC/MSC, viability, % test/control; experiment: Anticancer human tumor OVCAR-5 cell line growth inhibition [AhR]; conditions: second compound 0.316 µM; first compound 1 µM; stronger effect = lower value;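 also: spheroids exposed to compounds for 7 days; 100% = DMSO vehicle control wells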
measured-metric: viability, T/C (%)
Give bare numbers, in %.

Take a look at these entries with their results.
CC1(C)CCC(CN2CCN(c3ccc(C(=O)NS(=O)(=O)c4ccc(NCC5CCOCC5)c([N+](=O)[O-])c4)c(Oc4cnc5[nH]ccc5c4)c3)CC2)=C(c2ccc(Cl)cc2)C1 + Cc1cncc(-c2nc(NCCc3c[nH]c4ccccc34)c3ncn(C(C)C)c3n2)c1 : 105
CC1(C)CCC(CN2CCN(c3ccc(C(=O)NS(=O)(=O)c4ccc(NCC5CCOCC5)c([N+](=O)[O-])c4)c(Oc4cnc5[nH]ccc5c4)c3)CC2)=C(c2ccc(Cl)cc2)C1 + Cc1ccccc1N=Nc1ccc(NC(=O)c2ccnn2C)c(C)c1 : 103
COc1cc(Nc2ncc3c(n2)-c2ccc(Cl)cc2C(c2c(F)cccc2OC)=NC3)ccc1C(=O)O + Cc1ccccc1N=Nc1ccc(NC(=O)c2ccnn2C)c(C)c1 : 59.5
Nc1ccn(C2OC(CO)C(O)C2(F)F)c(=O)n1 (stereo not given) + Cc1cncc(-c2nc(NCCc3c[nH]c4ccccc34)c3ncn(C(C)C)c3n2)c1 : 32

Please turn your attention to the following entry.
Param item = O=C(C=Cc1cccc(S(=O)(=O)Nc2ccccc2)c1)NO + Cc1cncc(-c2nc(NCCc3c[nH]c4ccccc34)c3ncn(C(C)C)c3n2)c1 ; retrieve measured viability, T/C. 52.1

Cited source: PubChem BioAssay AID1919015
